Measured pKd values are reported for all entries that follow.
Biological target: PUM1-HD (Pumilio-homology domain) (Homo sapiens, UniProt Q14671 828-1176)
Sequence (Q14671 828-1176): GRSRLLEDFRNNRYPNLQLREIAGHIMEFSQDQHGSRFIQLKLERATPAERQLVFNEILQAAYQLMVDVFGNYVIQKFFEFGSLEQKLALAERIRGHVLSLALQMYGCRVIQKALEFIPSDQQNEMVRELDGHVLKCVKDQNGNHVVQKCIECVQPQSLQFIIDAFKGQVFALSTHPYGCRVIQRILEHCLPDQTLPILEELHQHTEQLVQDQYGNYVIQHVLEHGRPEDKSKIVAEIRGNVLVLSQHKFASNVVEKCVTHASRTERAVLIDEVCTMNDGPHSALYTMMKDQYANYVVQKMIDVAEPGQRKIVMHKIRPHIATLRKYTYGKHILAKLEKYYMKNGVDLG
Experiment: EMSA
// pKd: -log10(molar conc.)

// known answers, use as guide
UGUAGAUA (ssRNA) [p38α NREb] :: 9.20
UGUAUAUA (ssRNA) [hb NRE1] :: 9.40
UGUAAAUA (ssRNA) [p38α NREa] :: 9.04

Shift focus to the following entry.
Returns the measured pKd for the input binder. Input: UGUACAUA (ssRNA) [hb NRE2]
9.00
